- MEASURED_ON: Solute carrier family 15 member 1 (Homo sapiens, UniProt P46059)
- Sequence (P46059 whole entry): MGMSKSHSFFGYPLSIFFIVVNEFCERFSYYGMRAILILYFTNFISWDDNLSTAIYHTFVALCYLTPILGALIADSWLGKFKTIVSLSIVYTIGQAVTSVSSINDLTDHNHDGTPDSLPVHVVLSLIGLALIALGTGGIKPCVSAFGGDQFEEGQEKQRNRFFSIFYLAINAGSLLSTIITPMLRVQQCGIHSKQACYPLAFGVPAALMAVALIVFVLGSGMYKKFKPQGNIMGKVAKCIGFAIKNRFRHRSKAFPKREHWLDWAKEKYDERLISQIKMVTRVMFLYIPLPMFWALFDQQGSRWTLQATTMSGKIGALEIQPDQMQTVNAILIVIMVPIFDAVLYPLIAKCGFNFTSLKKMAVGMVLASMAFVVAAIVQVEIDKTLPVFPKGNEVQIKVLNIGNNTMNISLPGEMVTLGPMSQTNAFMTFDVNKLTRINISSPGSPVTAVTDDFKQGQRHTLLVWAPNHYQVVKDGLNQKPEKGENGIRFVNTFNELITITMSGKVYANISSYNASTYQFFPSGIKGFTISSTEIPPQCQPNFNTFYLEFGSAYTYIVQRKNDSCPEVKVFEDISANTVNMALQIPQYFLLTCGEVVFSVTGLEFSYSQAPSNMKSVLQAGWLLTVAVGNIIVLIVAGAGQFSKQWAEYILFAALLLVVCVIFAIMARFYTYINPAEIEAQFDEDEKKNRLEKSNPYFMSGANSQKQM
- PROCEDURE_TEXT: Concentration required to inhibit the maximum [14C]Gly-Sar uptake by human Intestinal peptide transporter PepT1 in Caco-2 cells
Peptide text beside a SMILES is read from it.
TEST_READOUT: IC50 (mM)
Give bare numbers, in mM.

Would you please look over these solved cases?
N[C@@H](Cc1ccccc1)C(=O)CCC(=O)O: 0.4
N[C@@H](Cc1ccccc1)[C@@H](O)/C=C/C(=O)O: 40.5
N[C@@H](Cc1ccccc1)C(=O)NCC(=O)O (H-Phe-Gly-OH): 0.2

Attention now turns to another entry.
Requested read-out IC50, target or system Solute carrier family 15 member 1 (Homo sapiens, UniProt P46059), entry `N[C@@H](Cc1ccccc1)[C@H](O)/C=C/C(=O)O`
26.8

---

- MEASURED_ON: Solute carrier family 15 member 1 (Homo sapiens, UniProt P46059)
- Sequence (P46059 whole entry): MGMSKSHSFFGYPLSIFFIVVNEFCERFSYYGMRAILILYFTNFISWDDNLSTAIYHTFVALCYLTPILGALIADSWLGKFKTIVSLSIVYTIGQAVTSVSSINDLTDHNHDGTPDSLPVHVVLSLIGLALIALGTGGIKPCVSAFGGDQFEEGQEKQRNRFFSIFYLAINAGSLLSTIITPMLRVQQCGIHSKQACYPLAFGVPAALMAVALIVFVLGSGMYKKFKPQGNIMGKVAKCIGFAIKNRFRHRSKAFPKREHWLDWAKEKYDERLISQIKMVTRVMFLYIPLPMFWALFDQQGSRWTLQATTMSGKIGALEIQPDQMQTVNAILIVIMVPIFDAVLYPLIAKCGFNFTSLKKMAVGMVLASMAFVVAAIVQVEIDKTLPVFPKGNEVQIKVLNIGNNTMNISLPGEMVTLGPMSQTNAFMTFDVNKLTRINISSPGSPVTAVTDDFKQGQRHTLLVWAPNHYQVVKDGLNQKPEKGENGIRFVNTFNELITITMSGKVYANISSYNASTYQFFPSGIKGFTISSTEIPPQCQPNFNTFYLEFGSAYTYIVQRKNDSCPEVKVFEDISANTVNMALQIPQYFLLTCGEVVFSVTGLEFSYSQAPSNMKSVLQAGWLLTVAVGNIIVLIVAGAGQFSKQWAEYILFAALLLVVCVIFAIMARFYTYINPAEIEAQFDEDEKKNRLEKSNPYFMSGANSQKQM
- PROCEDURE_TEXT: Affinity fo the compound against human Intestinal peptide transporter PepT1 in Caco-2 cells was measured as inhibition of [14C]Gly-Sar uptake
Peptide text beside a SMILES is read from it.
TEST_READOUT: Ki

N[C@@H](Cc1ccccc1)C(=O)NCC(=O)O (H-Phe-Gly-OH): 0.2 mM
N[C@@H](Cc1ccccc1)[C@@H](O)/C=C/C(=O)O: 39.8 mM
N[C@@H](Cc1ccccc1)[C@H](O)/C=C/C(=O)O: 26.4 mM

Attention now turns to another entry.
Requested read-out Ki, target or system Solute carrier family 15 member 1 (Homo sapiens, UniProt P46059), entry `N[C@@H](Cc1ccccc1)C(=O)CCC(=O)O`
0.4 mM
